B1: SLC6A17 (parent)
chain: KAVEEELDAEDRPAWNSKLQYILA

# Variants of: B1
# assayText: protein stability index of a GFP-peptide fusion (GPS, HEK-293T) (PSI 1-6); higher = more stable;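 note: lentivirally expressed fusions sorted by FACS into six bins by GFP to DsRed ratio, PSI derived from sequencing read proportions per bin multiplied by bin number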
# measurementContext: c terminus: a fixed tail appended
Give measured protein stability index for each item. Keep answers brief.
Reply briefly: the number, and no unit.

Recorded protein stability index for `R12M` , please?
2.19

Moving on to the next variant: `S17I`
1.83

Moving on to the next variant: `V3D`
3.66
